# credit: patent US20240415914A1

# Assay type: physicochemical
# ASSAY_SETUP: stored at room temperature (21-25° C.), day 510
# Procedure: At each time period, 0.05 g of powder was dissolved in 10 ml-15 of ethanol, diluted to fall within the analytical range, and injected into the LCMSMS for analysis.
Items are presented alongside their recorded Stability in Powder Concentrate (content by LCMSMS).
TEST_READOUT: Stability in Powder Concentrate (content by LCMSMS) (mg/g powder)

1. CCCCCc1cc(O)c(C/C=C(\C)CCC=C(C)C)c(O)c1	1.07
2. Cc1c(C)c2c(c(C)c1OC(=O)CCC(=O)O)CC[C@@](C)(CCC[C@H](C)CCC[C@H](C)CCCC(C)C)O2 [α-Tocopheryl succinate]	1.76
3. CCCCCc1cc(O)c2c(c1)OC(C)(C)[C@@H]1CCC(C)=C[C@@H]21 [D9 THC, delta-9-tetrahydrocannabinol, reference compound]	2.64
4. C=C(C)[C@@H]1CCC(C)=C[C@H]1c1c(O)cc(CCC)cc1O	0.049
5. CCCCCc1cc(O)c2c(c1)OC(C)(C)c1ccc(C)cc1-2	0.499
6. Cc1c(C)c2c(c(C)c1O)CC[C@@](C)(CCC[C@H](C)CCC[C@H](C)CCCC(C)C)O2	5.02
7. C=C(C)[C@@H]1CCC(C)=C[C@H]1c1c(O)cc(CCCCC)cc1O [CBD, cannabidiol, reference compound]	6.01

----------
Measured Stability in AB White, 21-25° C. (content by LCMSMS) accompanies every entry in the list below.
# EXPERIMENT_NOTES: Stability of cannabinoid and Vitamin E components of Beverage 1 (AB White) stored at 8° C. and 21-25° C., LCMSMS over 570 days
# Assay type: physicochemical
# ASSAY_SETUP: beverage stored at 21-25° C., day 18
TEST_READOUT: Stability in AB White, 21-25° C. (content by LCMSMS) (µg/mL)

1) CCCc1cc(O)c2c(c1)OC(C)(C)[C@@H]1CCC(C)=C[C@@H]21 [THCV, delta-9-tetrahydrocannabivarin]	3.50
2) CCCCCc1cc(O)c2c(c1)OC(C)(CCC=C(C)C)C=C2 (stereo not drawn)	0.313
3) CCCCCc1cc2c(c(O)c1C(=O)O)[C@@H]1C=C(C)CC[C@H]1C(C)(C)O2 [D9 THCA, delta-9-tetrahydrocannabinolic acid]	0.928
4) C=C(C)[C@@H]1CCC(C)=C[C@H]1c1c(O)cc(CCC)cc1O	0.151
5) C=C(C)[C@@H]1CCC(C)=C[C@H]1c1c(O)cc(CCCCC)c(C(=O)O)c1O	1.75
6) CCCCCc1cc(O)c2c(c1)OC(C)(C)[C@@H]1CCC(C)=C[C@@H]21 [D9 THC, delta-9-tetrahydrocannabinol, reference compound]	11.8
7) CCCCCc1cc(O)c2c(c1)OC(C)(C)c1ccc(C)cc1-2	2.78
8) CCCCCc1cc(O)c2c(c1)OC1(C)CCC3C1C2C3(C)C (stereo not drawn)	0.554
9) CCCCCc1cc(O)c(C/C=C(\C)CCC=C(C)C)c(O)c1	4.72

----------
# EXPERIMENT_NOTES: Stability of cannabinoid and Vitamin E components of Beverage 2 (AB Red) stored at 8° C. and 21-25° C., LCMSMS over 570 days
# ASSAY_SETUP: 21-25° C., 22 days
TEST_READOUT: Stability of Cannabinoids in AB Red (µg/mL)

1. CCCCCc1cc(O)c2c(c1)OC1(C)CCC3C1C2C3(C)C (centres unmarked)	0.49
2. C=C(C)[C@@H]1CCC(C)=C[C@H]1c1c(O)cc(CCCCC)c(C(=O)O)c1O	1.66
3. CCCc1cc(O)c2c(c1)OC(C)(C)[C@@H]1CCC(C)=C[C@@H]21 [THCV, delta-9-tetrahydrocannabivarin]	3.18
4. CCCCCc1cc2c(c(O)c1C(=O)O)[C@@H]1C=C(C)CC[C@H]1C(C)(C)O2 [D9 THCA, delta-9-tetrahydrocannabinolic acid]	1.34
5. CCCCCc1cc(O)c2c(c1)OC(C)(C)c1ccc(C)cc1-2	2.70
